- experimental.context: in 1,4-dioxane, 288.15 K
endpoint: solubility (mole fraction)
Answer with a bare number; do not write a unit.

Return reported solubility (mole fraction); argument: COc1c(N2CCNC(C)C2)c(F)cc2c(=O)c(C(=O)O)cn(C3CC3)c12 (stereo unspecified)
0.000952

====

- experimental.context: in ethyl acetate, 283.15 K
endpoint: solubility (mole fraction)
Answer with a bare number; do not write a unit.

Return reported solubility (mole fraction); argument: COc1c(N2CCNC(C)C2)c(F)cc2c(=O)c(C(=O)O)cn(C3CC3)c12 (stereo unspecified)
0.0044

====

- experimental.context: in methanol, 303.15 K
endpoint: solubility (mole fraction)
Answer with a bare number; do not write a unit.

Return reported solubility (mole fraction); argument: COc1c(N2CCNC(C)C2)c(F)cc2c(=O)c(C(=O)O)cn(C3CC3)c12 (stereo unspecified)
0.000637

====

- experimental.context: in ethyl acetate, 278.15 K
endpoint: solubility (mole fraction)

Return reported solubility (mole fraction); argument: COc1c(N2CCNC(C)C2)c(F)cc2c(=O)c(C(=O)O)cn(C3CC3)c12 (stereo unspecified)
0.00378

====

- experimental.context: in toluene, 313.15 K
endpoint: solubility (mole fraction)
Answer with a bare number; do not write a unit.

Return reported solubility (mole fraction); argument: COc1c(N2CCNC(C)C2)c(F)cc2c(=O)c(C(=O)O)cn(C3CC3)c12 (stereo unspecified)
0.000577

====

- experimental.context: in ethanol, 313.15 K
endpoint: solubility (mole fraction)
Answer with a bare number; do not write a unit.

Return reported solubility (mole fraction); argument: COc1c(N2CCNC(C)C2)c(F)cc2c(=O)c(C(=O)O)cn(C3CC3)c12 (stereo unspecified)
0.00116

====

- experimental.context: in n-butanol, 308.15 K
endpoint: solubility (mole fraction)
Answer with a bare number; do not write a unit.

Return reported solubility (mole fraction); argument: COc1c(N2CCNC(C)C2)c(F)cc2c(=O)c(C(=O)O)cn(C3CC3)c12 (stereo unspecified)
0.00299

====

- experimental.context: in 1,4-dioxane, 308.15 K
endpoint: solubility (mole fraction)
Answer with a bare number; do not write a unit.

Return reported solubility (mole fraction); argument: COc1c(N2CCNC(C)C2)c(F)cc2c(=O)c(C(=O)O)cn(C3CC3)c12 (stereo unspecified)
0.00172

====

- experimental.context: in ethyl acetate, 273.15 K
endpoint: solubility (mole fraction)
Answer with a bare number; do not write a unit.

Return reported solubility (mole fraction); argument: COc1c(N2CCNC(C)C2)c(F)cc2c(=O)c(C(=O)O)cn(C3CC3)c12 (stereo unspecified)
0.00323

====

- experimental.context: in n-propanol, 303.15 K
endpoint: solubility (mole fraction)
Answer with a bare number; do not write a unit.

Return reported solubility (mole fraction); argument: COc1c(N2CCNC(C)C2)c(F)cc2c(=O)c(C(=O)O)cn(C3CC3)c12 (stereo unspecified)
0.00109

====

- experimental.context: in DMF, 293.15 K
endpoint: solubility (mole fraction)
Answer with a bare number; do not write a unit.

Return reported solubility (mole fraction); argument: COc1c(N2CCNC(C)C2)c(F)cc2c(=O)c(C(=O)O)cn(C3CC3)c12 (stereo unspecified)
0.00486

====

- experimental.context: in n-butanol, 313.15 K
endpoint: solubility (mole fraction)
Answer with a bare number; do not write a unit.

Return reported solubility (mole fraction); argument: COc1c(N2CCNC(C)C2)c(F)cc2c(=O)c(C(=O)O)cn(C3CC3)c12 (stereo unspecified)
0.00344
